# Lookup of reported Kd keyed by entry
target: BCL6 BTB domain (Homo sapiens (Human))

Consider the reported Kd for these molecules:
smiles_entry	measurement_target	Kd
CN(C)c1cc(NC(=O)Cn2cc(-c3cc(Cl)c(O)c(C(N)=O)c3)c3c(=O)n(C)c(Cl)nc32)c(Cl)cn1	BCL6 BTB domain (Homo sapiens (Human))	81.2 nM
Cn1cnc2c(c(-c3cc(F)c(O)c(C(N)=O)c3)cn2CC(=O)Nc2cc(N3CC4CCC(C3)O4)ncc2Cl)c1=O	BCL6 BTB domain (Homo sapiens (Human))	6.06 nM

Could you now consider this next molecule?
Exercise: Could you please provide reported Kd for `CC(C)N1CCN(c2cc(NC(=O)Cn3cc(-c4cc(Cl)c(O)c(C(N)=O)c4)c4c(=O)n(C)cnc43)c(Cl)cn2)[C@@H](C)C1` ? Thanks!
Key: 16 nM
